ASSAY TARGET: SARS-CoV-2 receptor-binding domain (SARS-CoV-2, UniProt P0DTC2)
QUANTITY MEASURED: binding result

>>> reported_value("3645 (antibody, V domains shown) VH: QVQLQESGPGLVKPSETLSLTCAVSGGSISSYYWSWIRQPPGKGLEWIGYIYYSGRINYNPSLKSRVTISVDTSKNQFSLKLSSVTAADTAVYYCAREMRRGYSGYDDWDLYAFDIWGQGTMVTVSS VL: DIQLTQSPSFLSTSVGDRVTITCRASQGISSYLAWYQQKPGKAPKLLIYAASTLQSGVPSRFSGSGSGTEFTLTISSLQPEDFATYYCQQLNSYPHTFGQGTKLEIK")
"binds"
